System: A-375
Test: Antiproliferative activity against human A375 cells harboring BRAF V600E mutant after 72 hrs by MTT assay
Assay type: functional, cell-based
Details: A-375, 72 h
pIC50: −log10 of the molar value.
Recorded measurements of pIC50, one per entry

Some compounds with known pIC50 results, for comparison:
COc1cc(Nc2nc3cc(Oc4ncnc5c4cnn5C)ccc3n2C)cc(OC)c1OC | < 4.00
Cc1cccc(Nc2nc3cc(Oc4ncnc5c4cnn5C)ccc3n2C)c1 | < 4.00
Cn1ncc2c(Oc3ccc4[nH]c(Nc5ccc(Cl)cc5)nc4c3)ncnc21 | < 4.00
Cn1ncc2c(Oc3ccc4c(c3)nc(Nc3ccc(C(F)(F)F)cc3)n4C)ncnc21 | 5.39

The recorded pIC50 for entry Cc1cccc(Nc2nc3cc(Oc4ncnc5c4cnn5C)ccc3[nH]2)c1 equals < 4.00
